Sourced from patent US20250320312A1

Target: Peptide 1: Biotin-…-[Tyr(PC)]-acid
Sequence (peptide, as listed by the source): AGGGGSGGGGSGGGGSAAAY
Experiment: scFv ELISA
Measured parameter: OD450 (OD450)
Use OD450 as the unit, but write only the number.

Worked examples, 2 binders total:
PcOxP_DB03_D12 (scFv, V domains shown, scFv in periplasmic extract) VH: EVQLLESGGGLVQPGGSLRLSCAASGFTNSDFYMEWVRQAPGKGLEWVAASRNKANDYTTELADSVKGRFTISRDNSKNTLYLQMNSLRAEDTAVYYCARDYYGSSYWYFDVWGQGTLVTVSS VL: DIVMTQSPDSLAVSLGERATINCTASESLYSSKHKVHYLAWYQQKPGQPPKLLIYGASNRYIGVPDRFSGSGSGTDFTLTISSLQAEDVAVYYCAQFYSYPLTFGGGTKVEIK; 0.2
PcOxP_DB01_B12 (scFv, V domains shown, scFv in periplasmic extract) VH: EVQLLESGGGLVQPGGSLRLSCAASGFTFSSYYMEWVRQAPGKGLEWVAASRNKGNSYTTEYADSVKGRFTISRDNSKNTLYLQMNSLRAEDTAVYYCARDYYGSSYWYFDVWGQGTLVTVSS VL: DIVMTQSPDSLAVSLGERATINCTASESLYSSKHKVHYLAWYQQKPGQPPKLLIYGASNRYIGVPDRFSGSGSGTDFTLTISSLQAEDVAVYYCGQFYSYPLTFGGGTKVEIK; 0.56

Query string: Which OD450 reading was recorded for the binder PcOxP_DB02_C12 (scFv, V domains shown, scFv in periplasmic extract) VH: EVQLLESGGGLVQPGGSLRLSCAASGFTFSDHYMEWVRQAPGKGLEWVAASRNKANDYTTEYADSVKGRFTISRDNSKNTLYLQMNSLRAEDTAVYYCARDYYGSSYWYFDVWGQGTLVTVSS VL: DIVMTQSPDSLAVSLGERATINCTASESLYSSKHKVHYLAWYQQKPGQPPKLLIYGAHNRYIGVPDRFSGSGSGTDFTLTISSLQAEDVAVYYCANFYSYPLTFGGGTKVEIK ?
Result string: 0.97
